# assayedSystem: Recombinant PRC2 (EZH2-Y641F) (Homo sapiens, UniProt Q15910, Y641F)
# Sequence (Q15910 whole entry Y641F): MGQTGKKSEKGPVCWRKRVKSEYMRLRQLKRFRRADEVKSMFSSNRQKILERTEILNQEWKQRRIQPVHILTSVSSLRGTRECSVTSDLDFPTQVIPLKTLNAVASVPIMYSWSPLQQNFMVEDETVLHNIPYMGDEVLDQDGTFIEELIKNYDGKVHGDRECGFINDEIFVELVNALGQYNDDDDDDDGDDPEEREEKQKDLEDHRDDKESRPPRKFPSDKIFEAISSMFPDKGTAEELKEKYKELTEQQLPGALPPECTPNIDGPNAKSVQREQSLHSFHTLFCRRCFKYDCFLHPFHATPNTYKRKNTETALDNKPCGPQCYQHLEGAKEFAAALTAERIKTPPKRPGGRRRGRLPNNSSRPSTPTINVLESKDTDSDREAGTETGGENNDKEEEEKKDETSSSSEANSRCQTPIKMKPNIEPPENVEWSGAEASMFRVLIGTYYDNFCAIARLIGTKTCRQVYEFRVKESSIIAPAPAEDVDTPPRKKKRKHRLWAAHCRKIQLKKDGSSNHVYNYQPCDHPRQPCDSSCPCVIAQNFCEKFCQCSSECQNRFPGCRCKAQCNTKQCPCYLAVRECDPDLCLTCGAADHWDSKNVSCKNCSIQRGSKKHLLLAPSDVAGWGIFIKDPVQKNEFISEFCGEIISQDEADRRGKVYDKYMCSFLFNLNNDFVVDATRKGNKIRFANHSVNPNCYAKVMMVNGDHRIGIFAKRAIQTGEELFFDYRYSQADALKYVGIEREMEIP
# Sequence (O75530 whole entry partner): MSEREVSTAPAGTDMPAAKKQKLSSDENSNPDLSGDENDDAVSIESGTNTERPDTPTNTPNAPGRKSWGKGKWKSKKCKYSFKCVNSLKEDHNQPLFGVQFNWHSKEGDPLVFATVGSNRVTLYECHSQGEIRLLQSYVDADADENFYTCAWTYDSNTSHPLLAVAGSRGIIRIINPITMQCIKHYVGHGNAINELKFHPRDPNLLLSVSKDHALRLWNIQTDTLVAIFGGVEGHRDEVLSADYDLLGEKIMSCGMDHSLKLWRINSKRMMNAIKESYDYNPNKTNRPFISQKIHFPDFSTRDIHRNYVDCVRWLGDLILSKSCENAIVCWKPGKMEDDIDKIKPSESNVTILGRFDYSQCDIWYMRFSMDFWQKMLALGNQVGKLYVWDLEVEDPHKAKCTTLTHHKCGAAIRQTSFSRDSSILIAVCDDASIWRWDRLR
# Sequence (Q15022 whole entry partner): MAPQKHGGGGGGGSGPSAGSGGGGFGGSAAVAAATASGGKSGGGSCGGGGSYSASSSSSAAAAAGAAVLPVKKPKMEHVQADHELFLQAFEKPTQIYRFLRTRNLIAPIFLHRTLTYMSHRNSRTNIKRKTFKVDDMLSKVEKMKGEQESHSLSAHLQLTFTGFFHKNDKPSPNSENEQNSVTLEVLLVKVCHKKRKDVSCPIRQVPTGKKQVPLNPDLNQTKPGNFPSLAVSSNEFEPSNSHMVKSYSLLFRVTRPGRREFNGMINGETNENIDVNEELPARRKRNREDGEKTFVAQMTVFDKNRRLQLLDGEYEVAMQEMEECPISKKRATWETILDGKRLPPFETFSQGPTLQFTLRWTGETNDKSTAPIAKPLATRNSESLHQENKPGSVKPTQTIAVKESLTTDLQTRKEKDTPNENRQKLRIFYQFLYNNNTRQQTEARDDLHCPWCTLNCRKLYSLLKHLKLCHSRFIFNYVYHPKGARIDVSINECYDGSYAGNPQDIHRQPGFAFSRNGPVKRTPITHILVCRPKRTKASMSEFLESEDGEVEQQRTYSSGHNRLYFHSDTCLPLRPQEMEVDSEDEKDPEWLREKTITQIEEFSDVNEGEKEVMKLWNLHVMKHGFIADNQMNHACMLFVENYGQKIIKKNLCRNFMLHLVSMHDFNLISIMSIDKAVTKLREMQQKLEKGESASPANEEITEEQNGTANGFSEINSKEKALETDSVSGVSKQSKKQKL
# Sequence (Q09028 whole entry partner): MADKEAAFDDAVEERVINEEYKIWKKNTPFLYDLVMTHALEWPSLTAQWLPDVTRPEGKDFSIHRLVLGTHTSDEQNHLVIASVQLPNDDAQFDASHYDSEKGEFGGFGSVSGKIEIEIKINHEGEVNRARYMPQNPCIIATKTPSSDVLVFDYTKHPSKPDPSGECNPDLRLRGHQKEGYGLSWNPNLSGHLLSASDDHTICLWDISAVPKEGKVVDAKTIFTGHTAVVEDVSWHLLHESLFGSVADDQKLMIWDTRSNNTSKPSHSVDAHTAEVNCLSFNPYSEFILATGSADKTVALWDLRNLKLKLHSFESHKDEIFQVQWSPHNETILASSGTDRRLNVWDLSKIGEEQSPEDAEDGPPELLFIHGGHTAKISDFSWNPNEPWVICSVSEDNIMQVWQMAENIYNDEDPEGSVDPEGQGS
# Sequence (Q6ZN18 whole entry partner): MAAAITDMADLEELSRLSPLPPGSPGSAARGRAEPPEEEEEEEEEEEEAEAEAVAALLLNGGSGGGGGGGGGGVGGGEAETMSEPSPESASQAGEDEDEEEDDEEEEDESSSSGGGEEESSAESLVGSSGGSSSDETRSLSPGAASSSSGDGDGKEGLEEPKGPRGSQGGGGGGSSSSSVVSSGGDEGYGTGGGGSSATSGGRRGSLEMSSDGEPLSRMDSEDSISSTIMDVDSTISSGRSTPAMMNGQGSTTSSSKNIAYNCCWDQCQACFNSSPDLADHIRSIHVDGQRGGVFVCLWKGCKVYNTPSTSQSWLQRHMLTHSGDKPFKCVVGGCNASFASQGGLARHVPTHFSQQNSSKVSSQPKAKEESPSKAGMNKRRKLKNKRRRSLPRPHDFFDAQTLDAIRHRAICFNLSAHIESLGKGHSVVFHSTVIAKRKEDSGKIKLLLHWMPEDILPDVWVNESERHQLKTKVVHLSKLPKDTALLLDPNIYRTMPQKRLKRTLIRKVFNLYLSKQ
# assayOverview: In vitro methyltransferase activity test (LANCE Ultra);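 further: compounds tested as an 8-point threefold dilution series, fluorescence read after 1 h detection step at room temperature, IC50 derived from a four-parameter curve fit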
# measurementContext: EZH2 Y641F IC50, Recombinant PRC2 (EZH2-Y641F), LANCE Ultra detection, 3 hours reaction
Listed next: entries and their corresponding IC50.
Response body: numeric value in nM, unit text excluded.

query: Requested read-out: IC50. Entry: CCOc1cc(N(CC)C2CCC(N(C)C)CC2)c2ccnc(NCc3c(C)cc(C)[nH]c3=O)c2n1 (centres unmarked)
result: 143

query: And for `CCN(c1cc(-c2ccc(N3CCOCC3)nc2)cc2c(NCc3c(C)cc(C)[nH]c3=O)nccc12)C1CCN(C(C)C)CC1` ?
result: 159

query: Next up: CCN(c1cc(C(F)(F)F)cc2c(NCc3c(C)cc(C)[nH]c3=O)nccc12)C1CCC(N(C)C)CC1 (centres unmarked)
result: 117

query: `CCN(c1cc(C(F)(F)F)cc2c(NCc3c(C)cc(C)[nH]c3=O)nccc12)C1CCNCC1` ?
result: 92

query: Next compound up: `CCN(c1cc(-c2ccc(CN3CCN(C)CC3)nc2)cc2c(NCc3c(C)cc(C)[nH]c3=O)nccc12)C1CCN(C2CC2)CC1`
result: 83

Cited source for all entries: patent US20200262813A1
